System: T47D cells
Test: Alamar Blue cell viability assay, T47D
Format: cell-based, human
Conditions: Homo sapiens; T47D cell viability, Alamar Blue
IC50 values for the compounds below.
REPORTED_ENDPOINT: IC50

compound="Cc1ccc2nc(C)c(C3=NN(C(=O)CN4CCN(C(=O)OC(C)(C)C)CC4)C(c4cccc([N+](=O)[O-])c4)C3)n2c1 (centres unmarked)" reported_endpoint=IC50 result="15.2 µM"
compound="Cc1ccc2nc(C)c(C3=NN(C(=O)CN4CCNCC4)C(c4cccc([N+](=O)[O-])c4)C3)n2c1 (centres unmarked)" reported_endpoint=IC50 result="40 µM"
compound="Cc1ccc2nc(C)c(C3=NN(C(=O)CN4CCN(c5ccc(Cl)cc5F)CC4)C(c4cccc([N+](=O)[O-])c4)C3)n2c1 (centres unmarked)" reported_endpoint=IC50 result="86.5 µM"
compound="Cc1ccc2nc(C)c(C3=NN(C(=O)CN4CCN(c5ccccc5F)CC4)C(c4cccc([N+](=O)[O-])c4)C3)n2c1 (centres unmarked)" reported_endpoint=IC50 result="> 100 µM"
compound="Cc1ccc2nc(C)c(C3=NN(C(=O)CN4CCN(c5cccc(Cl)c5Cl)CC4)C(c4cccc([N+](=O)[O-])c4)C3)n2c1 (centres unmarked)" reported_endpoint=IC50 result="23.5 µM"
compound="Cc1ccc2nc(C)c(C3=NN(C(=O)CN4CCN(c5ccc(Cl)cc5)CC4)C(c4cccc([N+](=O)[O-])c4)C3)n2c1 (centres unmarked)" reported_endpoint=IC50 result="29.9 µM"
compound="Cc1ccc2nc(C)c(C3=NN(C(=O)CN4CCC(=O)CC4)C(c4cccc([N+](=O)[O-])c4)C3)n2c1 (centres unmarked)" reported_endpoint=IC50 result="23.3 µM"
compound="Cc1ccc2nc(C)c(C3=NN(C(=S)Nc4ccc([N+](=O)[O-])cc4)C(c4cccc([N+](=O)[O-])c4)C3)n2c1 (centres unmarked)" reported_endpoint=IC50 result="45.6 µM"
